# target_system: Strychnine-Insensitive [^3 H]Glycine Binding Sites, washed membranes of rat brain cortex (Rattus norvegicus, UniProt P35439)
# Construct: washed membranes of rat brain cortex; from tissue; host or cells: brain cortex membranes, male Sprague-Dawley rats (150-175 g)
# assay: biochemical
# setup_conditions: 1 h, read-out: [^3 H]-Glycine Binding % DSPL10 @ 10 μM, 10 μM test compound, 60 minutes on ice

molecule: Cc1cc2c3ccccc3[nH]c(=O)n2n1
inhibition at 10 µM: 13%
--
molecule: Cc1nnc2cnc3cc(Cl)c(Cl)cc3n12
inhibition at 10 µM: 0%
--
molecule: Clc1cc2ncc3nnc(-c4ccccc4)n3c2cc1Cl
inhibition at 10 µM: -3%

----------
Let's look at some compounds and their measured inhibition at 10 µM.
# target_system: Strychnine-Insensitive [^3 H]Glycine Binding Sites, washed membranes of rat brain cortex (Rattus norvegicus)
# Construct: washed membranes of rat brain cortex; from tissue; host or cells: brain cortex membranes, male Sprague-Dawley rats (150-175 g)
# assay: biochemical
# setup_conditions: 1 h, read-out: [^3 H]-Glycine Binding % DSPL10 @ 10 μM, 10 μM test compound, 60 minutes on ice

compound: CCCCc1nnc2cnc3cc(Cl)c(Cl)cc3n12
inhibition at 10 µM [%]: -2
--
compound: O=[N+]([O-])c1ccc2c(c1)ncc1nnnn12 [Compound 23, 7-nitrotetrazolo[1,5-a]quinoxaline]
inhibition at 10 µM [%]: -1
--
compound: O=c1[nH]c2cc([N+](=O)[O-])c([N+](=O)[O-])cc2n2nnnc12
inhibition at 10 µM [%]: 3
